- system tested: recombinant human calmodulin (human), P0DP23
- test protocol: ITC
- details: remark: other sources report otherwise
measured metric: pKd
Reminder that pKd is minus the log10 of a molar concentration.

Asked: Query (binder): Ac-SQSHPVMKAFCGLLLQSS-NH2 [CaMBP1 peptide of zebrafish STRA6] ; field requested: pKd
Given back: 5.77
